Source: ChEMBL document CHEMBL3988442

- Assay Target: Tyrosyl-tRNA synthetase, putative (Trypanosoma cruzi (strain CL Brener))
- Assay Summary: Trypanosoma cruzi tyrosyl tRNA synthetase (TcYRS) SOP
- Type: functional
- Parameters: scale not given: direction of the effect not stated beside the values
- Assay Context: 30 µM
Property Name: Percent Effect (%)
Give the value, in units of %, as a plain number.

Qu. Can you look up the measured Percent Effect of Cc1cnn(C2CN(Cc3nc(-c4ccco4)no3)C2)c1 for me?
Ans. 19.5

Qu. Likewise for CCn1c(C)cc(C(=O)N2CCCC(n3nc(C)nc3C)C2)c1C (stereo unspecified) ?
Ans. 10.8

Qu. Likewise for O=C(Nc1cccnc1)[C@H]1CO[C@H]2CCN(c3ncc(F)cn3)C[C@H]2C1 ?
Ans. 5

Qu. Likewise for O=C(Cc1c[nH]c2ccccc12)N1CCC(Nc2cccnn2)CC1 ?
Ans. 16.5

Qu. Likewise for CCc1csc(C2CCCN(C(=O)C3=NN(CC)C(=O)CC3)C2)n1 (stereo unspecified) ?
Ans. 12.2

Qu. Likewise for O=C(CCN1C(=O)CCC1=O)Nc1cnn(-c2ccccc2Cl)c1 ?
Ans. 6.1

Qu. Likewise for CN1CCN(C[C@@H]2CN(C(=O)c3ccccc3C#N)C[C@@H]2CO)CC1 ?
Ans. 9.76

Qu. Likewise for CC(C)c1nn(C)c(N(C)C)c1CNCc1cccc(CN(C)C)c1 ?
Ans. 18.5

Qu. Likewise for COC(=O)CN(C)C1CCc2ccccc21 (stereo unspecified) ?
Ans. 9.76

Qu. Likewise for COCc1nc2cc(NCc3ccncc3)ccc2o1 ?
Ans. -1.22

Qu. Likewise for CNC(=O)C1(c2cnccn2)CCCN1C(=O)c1ccn(C)n1 (stereo unspecified) ?
Ans. 74
